Kindly supply the reported composite z-score values for the records listed here.
TESTED ON: Focal adhesion kinase 1 (Homo sapiens) (UniProt Q05397)
Sequence (Q05397 whole entry, looked up): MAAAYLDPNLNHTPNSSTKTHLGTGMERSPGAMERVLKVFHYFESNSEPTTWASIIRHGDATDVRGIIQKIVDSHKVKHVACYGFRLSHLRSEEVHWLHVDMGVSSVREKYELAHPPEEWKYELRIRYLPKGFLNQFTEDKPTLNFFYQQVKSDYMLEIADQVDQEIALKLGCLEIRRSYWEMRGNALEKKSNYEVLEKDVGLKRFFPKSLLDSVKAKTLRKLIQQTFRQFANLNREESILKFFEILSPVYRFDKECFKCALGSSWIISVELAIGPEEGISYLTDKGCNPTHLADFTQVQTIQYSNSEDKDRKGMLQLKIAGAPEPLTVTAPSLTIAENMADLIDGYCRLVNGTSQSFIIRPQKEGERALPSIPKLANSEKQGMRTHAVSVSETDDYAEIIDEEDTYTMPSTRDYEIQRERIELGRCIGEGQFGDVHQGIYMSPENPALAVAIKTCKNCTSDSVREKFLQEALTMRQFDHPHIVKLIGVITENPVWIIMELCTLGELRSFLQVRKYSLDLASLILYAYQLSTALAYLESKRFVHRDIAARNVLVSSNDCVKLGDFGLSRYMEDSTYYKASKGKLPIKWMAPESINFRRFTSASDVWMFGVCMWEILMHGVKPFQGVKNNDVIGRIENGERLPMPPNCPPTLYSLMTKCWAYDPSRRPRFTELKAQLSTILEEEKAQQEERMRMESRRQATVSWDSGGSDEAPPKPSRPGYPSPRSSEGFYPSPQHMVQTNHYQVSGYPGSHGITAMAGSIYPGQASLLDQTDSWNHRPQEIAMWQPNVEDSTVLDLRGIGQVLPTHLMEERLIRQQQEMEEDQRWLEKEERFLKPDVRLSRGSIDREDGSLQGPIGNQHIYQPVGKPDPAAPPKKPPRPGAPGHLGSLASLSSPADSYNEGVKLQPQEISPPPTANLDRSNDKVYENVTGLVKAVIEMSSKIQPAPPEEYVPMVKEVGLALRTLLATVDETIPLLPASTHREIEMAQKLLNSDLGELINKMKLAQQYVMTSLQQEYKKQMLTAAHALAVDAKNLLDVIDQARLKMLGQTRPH
EXPERIMENTAL PROTOCOL: PTK2 protein binding on printed compound slides – biochemical, small-molecule microarray, 635/667 nm fluorescence, BSA, DTT, primary screen (AID 1130);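 further: composite of spot emission at 667 nm and signal to noise over triplicate slides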
SETUP CONDITIONS: 635 nm fluorescence, higher = more signal
Kindly provide the number alone.

Which measured composite z-score value corresponds to CCCc1cc2c(n1Cc1ccco1)C(C)C1CN(C(=O)c3ccccc3)C(C)(C(=O)OC)C21 (stereo not drawn) ? 0.307

Which measured composite z-score value corresponds to CN1CCC(c2ccc(CO)cc2)=CC1c1cccs1 (stereo not drawn) ? 0.903

Which measured composite z-score value corresponds to `COC(=O)[C@H]1[C@@H](O)[C@@]2(O)c3c(OC)cc(OC)cc3O[C@@]2(c2ccc(OC)cc2)[C@@H]1c1ccccc1` ? 0.153

====

EXPERIMENTAL PROTOCOL: forskolin-driven CRE-LacZ activity in PC12 – cell-based, CRE-LacZ reporter, forskolin-stimulated, primary screen (AID 1146);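 further: PC12 cells with 6xCRE LacZ reporter stimulated by forskolin 10 µM; beta-galactosidase reporter signal reflecting CREB driven transcription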
SETUP CONDITIONS: luminescence, 4.5 h; higher = more signal, called active from +8 up or from −8 down unless noted
Kindly supply the reported z-score values for the records listed here.
Kindly provide the number alone.

Which measured z-score value corresponds to `CN1CCc2nc(CO)c(CO)cc2C1` ? -0.0826

Which measured z-score value corresponds to `CCCC[C@@H]1C[C@H]1[C@@H](NP(=O)(c1ccccc1)c1ccccc1)c1ccc(Cl)cc1` ? -0.273

Which measured z-score value corresponds to CN1CCC(c2ccc(CO)cc2)=CC1C1CC1 (stereo unspecified) ? 0.54

Which measured z-score value corresponds to C=C(CC1(C(C)NP(=O)(c2ccccc2)c2ccccc2)CC1)c1ccccc1 (stereo unspecified) ? 1.49

Which measured z-score value corresponds to `C[C@@H]1OC=C2[C@@H](O)[C@H]3O[C@H]3C(=O)[C@]23[C@H]1[C@H]1C2=C([C@@H](O)[C@H]4O[C@H]4C2=O)[C@@H]3O[C@@H]1C` ? 1.04

Which measured z-score value corresponds to `c1ccc(-c2cc3c(nc2-c2ccccc2)CCNC3)cc1` ? -0.815

====

EXPERIMENTAL PROTOCOL: compound effects on lung adenocarcinoma cell viability – A549, calcein-AM fluorescence, 48 h, basal, profiling panel (AID 1162); further: test concentration not given here
SETUP CONDITIONS: higher = more signal
Category | rule: reported z-score within range, see A: < -1; B: ≥ -1 and < 0.2; C: ≥ 0.2

Would you mind sorting `c1ccc(-c2cc3c(nc2-c2ccccc2)CCNC3)cc1` into the appropriate category? C

Would you mind sorting `CCOC(=O)[C@H]1CC=C2C(=O)Oc3ccc(Br)cc3[C@@H]21` into the appropriate category? A

Would you mind sorting `COC(=O)[C@@]1(Cc2ccccc2)[C@H]2c3cc(C(=O)N(C)C)n(C)c3C[C@H]2CN1C(=O)c1ccccc1` into the appropriate category? A

Would you mind sorting `CCc1cc2c(nc1CC)CCN(CCC(C)=NOC)C2` into the appropriate category? B

Would you mind sorting COC(=O)C1(C)C=C2C(=C(C)C(=O)C2C)CN1 (stereo not drawn) into the appropriate category? A

Would you mind sorting CN1CCC(c2ccc(CO)cc2)=CC1C1CC1 (stereo not drawn) into the appropriate category? B

Would you mind sorting COc1cc2c(cc1O)C(C)N(C)CC2 (stereo not drawn) into the appropriate category? C

Would you mind sorting `C[C@@H]1OC=C2[C@@H](O)[C@H]3O[C@H]3C(=O)[C@]23[C@H]1[C@H]1C2=C([C@@H](O)[C@H]4O[C@H]4C2=O)[C@@H]3O[C@@H]1C` into the appropriate category? C

Would you mind sorting CCCc1cc2c(n1Cc1ccco1)C(C)C1CN(C(=O)c3ccccc3)C(C)(C(=O)OC)C21 (stereo not drawn) into the appropriate category? B

Would you mind sorting CCCc1cc2c(n1Cc1cccc(Cl)c1)C(C)C1CN(C(=O)c3ccccc3)C(C)(C(=O)OC)C21 (stereo not drawn) into the appropriate category? A

Would you mind sorting O=P(c1ccccc1)(c1ccccc1)N1CC2(CC2)CC(O)(c2ccccc2)C1 (stereo not drawn) into the appropriate category? A

Would you mind sorting `C=C(CC1(CNP(=O)(c2ccccc2)c2ccccc2)CC1)c1ccccc1` into the appropriate category? A

Would you mind sorting `C[C@H]1O[C@H]2C3=C(C(=O)[C@@H]4O[C@@H]4[C@@H]3O)[C@@H]1[C@@H]1[C@@H](C)OC=C3[C@@H](O)[C@H]4O[C@H]4C(=O)[C@]312` into the appropriate category? C

Would you mind sorting `CN1CCc2nc(CO)c(CO)cc2C1` into the appropriate category? C

Would you mind sorting `COC(=O)[C@H]1[C@@H](O)[C@@]2(O)c3c(OC)cc(OC)cc3O[C@@]2(c2ccc(OC)cc2)[C@@H]1c1ccccc1` into the appropriate category? A

Would you mind sorting `CCCC=C(CCC)[C@@H](NP(=O)(c1ccccc1)c1ccccc1)c1ccccc1` into the appropriate category? B

Would you mind sorting `CCCC[C@@H]1C[C@H]1[C@@H](NP(=O)(c1ccccc1)c1ccccc1)c1ccc(Cl)cc1` into the appropriate category? B

====

EXPERIMENTAL PROTOCOL: small molecules captured by biotinylated probe aFGF2 – biochemical, small-molecule microarray, fluorescence 635/667, stem cell growth factor project, primary screen (AID 1067);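 further: measures binding of biotinylated aFGF2 protein to printed compounds on slides; z-score merges feature fluorescence and signal-to-noise across triplicate slides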
SETUP CONDITIONS: higher = more signal; small-molecule microarray, probe aFGF2, fluorescence unless noted
Values of composite z-score greater than or equal to -0.01 map to true (1); values below map to false (0).

Determine whether this compound has composite z-score no lower than -0.01: C=C(CC1(C(C)NP(=O)(c2ccccc2)c2ccccc2)CC1)c1ccccc1 (configuration not stated) true (1)

Determine whether this compound has composite z-score no lower than -0.01: `COC(=O)[C@H]1[C@@H](O)[C@@]2(O)c3c(OC)cc(OC)cc3O[C@@]2(c2ccc(OC)cc2)[C@@H]1c1ccccc1` false (0)

Determine whether this compound has composite z-score no lower than -0.01: `COC(=O)[C@H]1[C@H](c2ccccc2)C(=O)[C@]2(O)c3ccccc3O[C@@]12c1ccccc1` false (0)

Determine whether this compound has composite z-score no lower than -0.01: OCc1ccc(C2=CC(c3cccs3)N(Cc3cccc(OC(F)(F)F)c3)CC2)cc1 (configuration not stated) false (0)

Determine whether this compound has composite z-score no lower than -0.01: CCCc1cc2c(n1Cc1cccc(Cl)c1)C(C)C1CN(C(=O)c3ccccc3)C(C)(C(=O)OC)C21 (configuration not stated) true (1)

Determine whether this compound has composite z-score no lower than -0.01: CCCc1cc2c(n1CCO)C(C)C1CN(C(=O)c3ccccc3)C(C)(C(=O)OC)C21 (configuration not stated) true (1)

Determine whether this compound has composite z-score no lower than -0.01: `CCCC[C@@H]1C[C@H]1[C@@H](NP(=O)(c1ccccc1)c1ccccc1)c1ccc(Cl)cc1` false (0)

Determine whether this compound has composite z-score no lower than -0.01: `C[C@@H]1OC=C2[C@@H](O)[C@H]3O[C@H]3C(=O)[C@]23[C@H]1[C@H]1C2=C([C@@H](O)[C@H]4O[C@H]4C2=O)[C@@H]3O[C@@H]1C` false (0)

Determine whether this compound has composite z-score no lower than -0.01: CCCc1cc2c(n1Cc1ccc(C)cc1)C(C)C1CN(C(=O)c3ccccc3)C(C)(C(=O)OC)C21 (configuration not stated) true (1)

Determine whether this compound has composite z-score no lower than -0.01: `COC(=O)NCC=Cc1nc(CCC=CC(=O)O[C@H]2CC3CC(=O)O[C@@H](C=CCC(C)C)C[C@@H]4CC[C@H](C)[C@@H](C[C@@H](OC)C[C@H](C2)O3)O4)co1` false (0)

Determine whether this compound has composite z-score no lower than -0.01: `CN1CCc2nc(CO)c(CO)cc2C1` false (0)

Determine whether this compound has composite z-score no lower than -0.01: COc1cc2c(cc1O)C(C)N(C)CC2 (configuration not stated) false (0)

Determine whether this compound has composite z-score no lower than -0.01: `C[C@@H]1Cc2c(cnc3c2CN(C)CC3)CO1` false (0)

Determine whether this compound has composite z-score no lower than -0.01: OCc1ccc(C2=CC(C3CC3)N(Cc3sc4ccccc4c3Cl)CC2)cc1 (configuration not stated) false (0)

Determine whether this compound has composite z-score no lower than -0.01: `CCOC(=O)[C@H]1CC=C2C(=O)Oc3ccccc3[C@@H]21` false (0)

Determine whether this compound has composite z-score no lower than -0.01: `C=C(CC1(CNP(=O)(c2ccccc2)c2ccccc2)CC1)c1ccccc1` true (1)

Determine whether this compound has composite z-score no lower than -0.01: `COC(=O)[C@@]1(Cc2ccccc2)[C@H]2c3cc(C(=O)N(C)C)[nH]c3C[C@H]2CN1C(=O)c1ccccc1` true (1)

Determine whether this compound has composite z-score no lower than -0.01: `COC(=O)[C@H]1C(=O)c2ccccc2O[C@@](C(=O)OC)(c2ccccc2)[C@@H]1c1ccccc1` false (0)

Determine whether this compound has composite z-score no lower than -0.01: CN1CCC(c2ccc(CO)cc2)=CC1C1CC1 (configuration not stated) false (0)

Determine whether this compound has composite z-score no lower than -0.01: `C[C@H]1O[C@H]2C3=C(C(=O)[C@@H]4O[C@@H]4[C@@H]3O)[C@@H]1[C@@H]1[C@@H](C)OC=C3[C@@H](O)[C@H]4O[C@H]4C(=O)[C@]312` false (0)

Determine whether this compound has composite z-score no lower than -0.01: CN1CCC(c2ccc(CO)cc2)=CC1c1cccs1 (configuration not stated) false (0)

meta.source: PubChem BioAssay
